- target.or.test.system: T1, IL-13 (in-house) (UniProt P35225 35-146, limits assumed)
- T1 construct: SPR analyte
- T1 sequence (P35225 35-146 limits assumed): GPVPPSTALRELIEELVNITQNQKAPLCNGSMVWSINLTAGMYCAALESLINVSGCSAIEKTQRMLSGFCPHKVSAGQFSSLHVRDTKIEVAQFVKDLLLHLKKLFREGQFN
- test: SPR (BIAcore T200), Fab captured on anti-Fab chip, IL-13 as analyte, 25 C, 1:1 model
measured.quantity: koff (s⁻¹)
Answer in s⁻¹, number only, no unit symbol.

Recorded koff for anti-IL-13 Fab variant CDR L3 N92A (Fab, V domains shown, Fab; variable domains only; Kabat numbering) VH: EVTLRESGPALVKPTQTLTLTCTVSGFSLSAYSVNWIRQPPGKALEWLAMIWGDGKIVYNSALKSRLTISKDTSKNQVVLTMTNMDPVDTATYYCAGDGYYPYAMDNWGQGSLVTVSS VL: DIVLTQSPDSLSVSLGERATINCRASKSVDSYGNSFMHWYQQKPGQPPKLLIYLASNLESGVPDRFSGSGSGTDFTLTISSLQAEDVAVYYCQQNAEDPRTFGGGTKVEIK , please?
3e-05
